EXPERIMENTAL_SYSTEM: furin, P09958;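 note: purified furin at 1:10 enzyme:substrate in 50 mM HEPES pH 7.5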
Sequence (P09958 whole entry): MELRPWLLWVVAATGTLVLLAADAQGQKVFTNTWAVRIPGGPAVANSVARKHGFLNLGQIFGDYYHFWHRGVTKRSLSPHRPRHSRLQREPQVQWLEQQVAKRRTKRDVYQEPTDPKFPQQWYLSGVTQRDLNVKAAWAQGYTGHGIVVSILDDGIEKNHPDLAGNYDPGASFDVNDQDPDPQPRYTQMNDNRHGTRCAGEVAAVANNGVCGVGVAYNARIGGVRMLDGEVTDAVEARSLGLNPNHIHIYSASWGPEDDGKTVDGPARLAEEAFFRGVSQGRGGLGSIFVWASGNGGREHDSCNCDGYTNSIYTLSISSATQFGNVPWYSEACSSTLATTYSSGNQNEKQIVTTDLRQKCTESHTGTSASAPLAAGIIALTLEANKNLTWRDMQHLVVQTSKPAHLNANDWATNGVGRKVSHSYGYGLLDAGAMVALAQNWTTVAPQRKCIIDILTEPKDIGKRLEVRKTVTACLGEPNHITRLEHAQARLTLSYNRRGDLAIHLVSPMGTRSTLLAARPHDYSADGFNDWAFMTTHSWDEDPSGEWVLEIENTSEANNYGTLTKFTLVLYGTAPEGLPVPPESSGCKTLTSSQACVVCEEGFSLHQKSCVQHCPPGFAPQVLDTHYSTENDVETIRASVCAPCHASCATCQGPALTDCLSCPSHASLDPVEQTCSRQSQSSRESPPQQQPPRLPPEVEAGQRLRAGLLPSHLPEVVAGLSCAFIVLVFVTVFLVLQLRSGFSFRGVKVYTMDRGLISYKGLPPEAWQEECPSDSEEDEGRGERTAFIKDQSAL
PROTOCOL_TEXT: furin cleavage Z-score vs untreated control; higher = more cleavage, active = 3.5 or more, inactive = 1 or less, 8 variable residues between constant flanks
TEST_CONTEXT: 30 min
The list shows a part of the results. The hit rate among all sequences tested is not known here.
RESULT_TYPE: furin cleavage Z-score
Please give the numeric answer without any surrounding text.

# count of solved cases: 3
ORDERED_RESIDUES	furin cleavage Z-score
CAVCGAPPCVAGNASASA [HC442]	0.314
CARHHRAAATAGNASASA [FS-2142]	1.18
CARRRRHTFKAGNASASA [FS-2374]	8.36

Switching to the query record.
Request: GET /values?readout=furin cleavage Z-score&item= CARSTRFAATAGNASASA [FS-2188]
Result: 1.52
